# assayExplanation: APR_HepG2_MicrotubuleCSK_72hr: Apredica 72-hour HepG2 Assay for Microtubule CSK Stabilty (AID 2282919)
# experimentalContext: HepG2 microtubule cytoskeleton, high-content imaging, actives raise or lower the signal
Activity calls are given as the source filed them. The calls were made as follows: active = hit-call score of the fitted dose curve at least 0.9, where 1 is the maximum; inactive = score below 0.9.
Classes used: true (1) (active), false (0) (inactive)

smilesInput | cat
Cc1occc1C(=O)Nc1ccc(C(=O)N2CCC(F)(F)/C(=C\C(=O)N3CCC(N4CCCCC4)CC3)c3ccccc32)cc1 | false (0)
O=CCCCC=O | false (0)
O=C(Nc1ccc(Cl)cc1)Nc1ccc(Cl)c(Cl)c1 | true (1)

###

# systemTested: Aryl hydrocarbon receptor (Homo sapiens) (UniProt P35869)
# Sequence (P35869 whole entry, looked up): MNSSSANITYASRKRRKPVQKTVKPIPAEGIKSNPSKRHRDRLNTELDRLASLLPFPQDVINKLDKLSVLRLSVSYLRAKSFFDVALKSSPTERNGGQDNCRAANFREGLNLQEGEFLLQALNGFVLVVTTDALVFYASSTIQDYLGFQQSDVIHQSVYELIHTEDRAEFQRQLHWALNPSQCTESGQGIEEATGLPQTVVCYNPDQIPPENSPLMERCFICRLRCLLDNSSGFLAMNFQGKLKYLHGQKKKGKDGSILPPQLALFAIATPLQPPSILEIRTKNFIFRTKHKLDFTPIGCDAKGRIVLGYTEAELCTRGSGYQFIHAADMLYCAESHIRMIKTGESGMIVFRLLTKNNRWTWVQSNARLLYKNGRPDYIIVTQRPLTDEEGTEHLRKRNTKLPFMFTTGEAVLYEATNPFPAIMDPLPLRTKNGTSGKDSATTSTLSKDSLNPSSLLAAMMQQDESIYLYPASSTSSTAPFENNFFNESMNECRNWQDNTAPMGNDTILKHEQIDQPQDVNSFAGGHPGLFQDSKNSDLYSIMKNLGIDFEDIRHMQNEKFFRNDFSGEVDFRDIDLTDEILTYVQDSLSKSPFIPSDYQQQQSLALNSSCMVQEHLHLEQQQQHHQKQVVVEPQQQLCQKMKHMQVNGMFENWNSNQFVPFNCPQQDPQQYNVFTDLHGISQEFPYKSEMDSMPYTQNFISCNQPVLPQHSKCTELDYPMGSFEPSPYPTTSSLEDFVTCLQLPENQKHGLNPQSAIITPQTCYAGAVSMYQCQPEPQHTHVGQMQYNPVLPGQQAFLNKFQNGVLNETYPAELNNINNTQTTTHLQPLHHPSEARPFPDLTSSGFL
# assayExplanation: ATG_Ahr_CIS: Attagene CIS-FACTORIAL HepG2 Assay for human Aryl Hydrocarbon Receptor (Ahr) (AID 2282930)
# experimentalContext: HepG2 AhR cis-factorial reporter transcription; actives raise or lower the signal
Activity calls are given as the source filed them. The calls were made as follows: active = hit-call score of the fitted dose curve at least 0.9, where 1 is the maximum; inactive = score below 0.9.
Classes used: 1 for active, -1 for inactive

compound | systemTested | cat
CC(=O)N1CCN(c2ccc(OC[C@H]3CO[C@](Cn4ccnc4)(c4ccc(Cl)cc4Cl)O3)cc2)CC1 | Aryl hydrocarbon receptor (Homo sapiens) (UniProt P35869) | 1
O=C(OCCCCCCOC(=O)c1ccccc1)c1ccccc1 | Aryl hydrocarbon receptor (Homo sapiens) (UniProt P35869) | -1
CC(O)CC(C)(C)O (stereo not given) | Aryl hydrocarbon receptor (Homo sapiens) (UniProt P35869) | -1
Cc1ccc2oc(CN(Cc3ccccc3)C(=O)Nc3c(F)cc(F)cc3F)c(-c3ccc(Cl)cc3)c2c1 | Aryl hydrocarbon receptor (Homo sapiens) (UniProt P35869) | -1
NCc1cccc(C2CCN(C(=O)c3ccc(C#Cc4ccccc4F)o3)CC2)c1 | Aryl hydrocarbon receptor (Homo sapiens) (UniProt P35869) | -1
Cc1oc2c(NC(=O)c3c(Cl)cccc3Cl)cccc2c1C(C)(C)O | Aryl hydrocarbon receptor (Homo sapiens) (UniProt P35869) | 1
CCCC(=O)OCCC(C)C | Aryl hydrocarbon receptor (Homo sapiens) (UniProt P35869) | -1
CCOC(=O)O[C@H](C)OC(=O)c1ccc2c(c1)cc(C(=O)NC1CCN(C(C)C)CC1)n2Cc1cc(-c2ccc(Cl)s2)on1 | Aryl hydrocarbon receptor (Homo sapiens) (UniProt P35869) | -1
Clc1cc(Cl)c2c(c1)N=C1CCCCCN1C2 | Aryl hydrocarbon receptor (Homo sapiens) (UniProt P35869) | -1
O=C(O)Cc1cc(I)c(Oc2ccc(O)c(I)c2)c(I)c1 | Aryl hydrocarbon receptor (Homo sapiens) (UniProt P35869) | -1
CCN(CC)C(=O)c1cc(S(=O)(=O)Cc2ccccc2)c(N2CCC(c3ccccc3)CC2)cc1N(CC)CCN(C)C | Aryl hydrocarbon receptor (Homo sapiens) (UniProt P35869) | -1
c1ccc2ccccc2c1 | Aryl hydrocarbon receptor (Homo sapiens) (UniProt P35869) | -1
c1ccc(C[n+]2cccc3ccccc32)cc1 | Aryl hydrocarbon receptor (Homo sapiens) (UniProt P35869) | 1
CCCCCCCCOC(=O)c1cc(O)c(O)c(O)c1 | Aryl hydrocarbon receptor (Homo sapiens) (UniProt P35869) | -1
CC(C)(C)c1cc(/C=C2\SC(N)=NC2=O)cc(C(C)(C)C)c1O | Aryl hydrocarbon receptor (Homo sapiens) (UniProt P35869) | -1
CN(C)C(=O)C1(N2CCCCC2)CCN(CC[C@@]2(c3ccc(Cl)c(Cl)c3)CN(C(=O)c3ccccc3)CCO2)CC1 | Aryl hydrocarbon receptor (Homo sapiens) (UniProt P35869) | -1
CC(C)(O)c1ccc(CNC(=O)c2cccnc2Oc2ccc3nonc3c2)cc1 | Aryl hydrocarbon receptor (Homo sapiens) (UniProt P35869) | -1
COCC(C)OCC(C)OCC(C)O (stereo not given) | Aryl hydrocarbon receptor (Homo sapiens) (UniProt P35869) | -1
NC(=O)c1nc(-c2cccc(-c3cc(F)ccc3OCC(F)(F)C(F)(F)F)c2)n[nH]1 | Aryl hydrocarbon receptor (Homo sapiens) (UniProt P35869) | -1
CCCCOC(=O)CC(CC(=O)OCCCC)(OC(C)=O)C(=O)OCCCC | Aryl hydrocarbon receptor (Homo sapiens) (UniProt P35869) | -1
CC[C@H](NC(=O)c1cc(F)ccc1NS(=O)(=O)c1cccc2cccnc12)c1ccccc1 | Aryl hydrocarbon receptor (Homo sapiens) (UniProt P35869) | -1
OCCO | Aryl hydrocarbon receptor (Homo sapiens) (UniProt P35869) | -1
CCCCCCCCCCCO | Aryl hydrocarbon receptor (Homo sapiens) (UniProt P35869) | -1
CCCCCCCCCCCC[N+](C)(C)C | Aryl hydrocarbon receptor (Homo sapiens) (UniProt P35869) | -1
CCCCCCCCOc1ccc(C(=O)c2ccccc2)c(O)c1 | Aryl hydrocarbon receptor (Homo sapiens) (UniProt P35869) | 1
CN(C[C@@H](CC[N+]12CCC(C3CCCCC3)(CC1)CC2)c1ccc(Cl)c(Cl)c1)C(=O)c1cc(C(F)(F)F)cc(C(F)(F)F)c1 | Aryl hydrocarbon receptor (Homo sapiens) (UniProt P35869) | -1
CCCCCCCCCCCCO | Aryl hydrocarbon receptor (Homo sapiens) (UniProt P35869) | -1
Cc1cccc2ccccc12 | Aryl hydrocarbon receptor (Homo sapiens) (UniProt P35869) | -1
CC(C)(C)c1csc(-c2cc3cc(OCc4ccccc4CC(=O)O)ccc3o2)n1 | Aryl hydrocarbon receptor (Homo sapiens) (UniProt P35869) | -1
O=C(Nc1ccc(Cl)cc1)Nc1ccc(Cl)c(Cl)c1 | Aryl hydrocarbon receptor (Homo sapiens) (UniProt P35869) | -1
O=C(O)c1ccccc1-n1cc(C(=O)O)c(=O)c2cc(Nc3c(F)cc(F)cc3Cl)c(Cl)cc21 | Aryl hydrocarbon receptor (Homo sapiens) (UniProt P35869) | -1
O=C1c2ccccc2C(=O)N1CCc1noc(-c2ccc(CN3CCCCCC3)s2)n1 | Aryl hydrocarbon receptor (Homo sapiens) (UniProt P35869) | -1
O=C(O)Cn1c(=O)n(Cc2ccc(Br)cc2F)c(=O)c2ccc(Cl)cc21 | Aryl hydrocarbon receptor (Homo sapiens) (UniProt P35869) | -1
CC[C@@H]1C[C@H](N(Cc2cc(C(F)(F)F)cc(C(F)(F)F)c2)C(C)=O)c2cc(C(F)(F)F)ccc2N1C(=O)OC(C)C | Aryl hydrocarbon receptor (Homo sapiens) (UniProt P35869) | -1
O=C(O)c1ccccc1C(=O)OCc1ccccc1 | Aryl hydrocarbon receptor (Homo sapiens) (UniProt P35869) | -1
CC1(C)NC(=O)N(c2ccc([N+](=O)[O-])c(C(F)(F)F)c2)C1=O | Aryl hydrocarbon receptor (Homo sapiens) (UniProt P35869) | -1
COc1cccc([C@H](O)C2CCN(CCc3ccc(F)cc3)CC2)c1OC | Aryl hydrocarbon receptor (Homo sapiens) (UniProt P35869) | -1
O=c1[nH]sc2ccccc12 | Aryl hydrocarbon receptor (Homo sapiens) (UniProt P35869) | -1
Cc1c2ccccc2c(C)c2c1ccc1ccccc12 | Aryl hydrocarbon receptor (Homo sapiens) (UniProt P35869) | 1
CCN(Cc1cccnc1)C(=O)c1cccc(Cl)c1[C@]1(C)C(=O)N(Cc2ccc(OC)cc2OC)c2ccc(Cl)cc21 | Aryl hydrocarbon receptor (Homo sapiens) (UniProt P35869) | 1
